Sourced from patent US20250228835A1

System Name: ABCA4 P1380L (Homo sapiens, UniProt P78363, P1380L)
Construct: expressed in transfected cells
Sequence (P78363 whole entry P1380L): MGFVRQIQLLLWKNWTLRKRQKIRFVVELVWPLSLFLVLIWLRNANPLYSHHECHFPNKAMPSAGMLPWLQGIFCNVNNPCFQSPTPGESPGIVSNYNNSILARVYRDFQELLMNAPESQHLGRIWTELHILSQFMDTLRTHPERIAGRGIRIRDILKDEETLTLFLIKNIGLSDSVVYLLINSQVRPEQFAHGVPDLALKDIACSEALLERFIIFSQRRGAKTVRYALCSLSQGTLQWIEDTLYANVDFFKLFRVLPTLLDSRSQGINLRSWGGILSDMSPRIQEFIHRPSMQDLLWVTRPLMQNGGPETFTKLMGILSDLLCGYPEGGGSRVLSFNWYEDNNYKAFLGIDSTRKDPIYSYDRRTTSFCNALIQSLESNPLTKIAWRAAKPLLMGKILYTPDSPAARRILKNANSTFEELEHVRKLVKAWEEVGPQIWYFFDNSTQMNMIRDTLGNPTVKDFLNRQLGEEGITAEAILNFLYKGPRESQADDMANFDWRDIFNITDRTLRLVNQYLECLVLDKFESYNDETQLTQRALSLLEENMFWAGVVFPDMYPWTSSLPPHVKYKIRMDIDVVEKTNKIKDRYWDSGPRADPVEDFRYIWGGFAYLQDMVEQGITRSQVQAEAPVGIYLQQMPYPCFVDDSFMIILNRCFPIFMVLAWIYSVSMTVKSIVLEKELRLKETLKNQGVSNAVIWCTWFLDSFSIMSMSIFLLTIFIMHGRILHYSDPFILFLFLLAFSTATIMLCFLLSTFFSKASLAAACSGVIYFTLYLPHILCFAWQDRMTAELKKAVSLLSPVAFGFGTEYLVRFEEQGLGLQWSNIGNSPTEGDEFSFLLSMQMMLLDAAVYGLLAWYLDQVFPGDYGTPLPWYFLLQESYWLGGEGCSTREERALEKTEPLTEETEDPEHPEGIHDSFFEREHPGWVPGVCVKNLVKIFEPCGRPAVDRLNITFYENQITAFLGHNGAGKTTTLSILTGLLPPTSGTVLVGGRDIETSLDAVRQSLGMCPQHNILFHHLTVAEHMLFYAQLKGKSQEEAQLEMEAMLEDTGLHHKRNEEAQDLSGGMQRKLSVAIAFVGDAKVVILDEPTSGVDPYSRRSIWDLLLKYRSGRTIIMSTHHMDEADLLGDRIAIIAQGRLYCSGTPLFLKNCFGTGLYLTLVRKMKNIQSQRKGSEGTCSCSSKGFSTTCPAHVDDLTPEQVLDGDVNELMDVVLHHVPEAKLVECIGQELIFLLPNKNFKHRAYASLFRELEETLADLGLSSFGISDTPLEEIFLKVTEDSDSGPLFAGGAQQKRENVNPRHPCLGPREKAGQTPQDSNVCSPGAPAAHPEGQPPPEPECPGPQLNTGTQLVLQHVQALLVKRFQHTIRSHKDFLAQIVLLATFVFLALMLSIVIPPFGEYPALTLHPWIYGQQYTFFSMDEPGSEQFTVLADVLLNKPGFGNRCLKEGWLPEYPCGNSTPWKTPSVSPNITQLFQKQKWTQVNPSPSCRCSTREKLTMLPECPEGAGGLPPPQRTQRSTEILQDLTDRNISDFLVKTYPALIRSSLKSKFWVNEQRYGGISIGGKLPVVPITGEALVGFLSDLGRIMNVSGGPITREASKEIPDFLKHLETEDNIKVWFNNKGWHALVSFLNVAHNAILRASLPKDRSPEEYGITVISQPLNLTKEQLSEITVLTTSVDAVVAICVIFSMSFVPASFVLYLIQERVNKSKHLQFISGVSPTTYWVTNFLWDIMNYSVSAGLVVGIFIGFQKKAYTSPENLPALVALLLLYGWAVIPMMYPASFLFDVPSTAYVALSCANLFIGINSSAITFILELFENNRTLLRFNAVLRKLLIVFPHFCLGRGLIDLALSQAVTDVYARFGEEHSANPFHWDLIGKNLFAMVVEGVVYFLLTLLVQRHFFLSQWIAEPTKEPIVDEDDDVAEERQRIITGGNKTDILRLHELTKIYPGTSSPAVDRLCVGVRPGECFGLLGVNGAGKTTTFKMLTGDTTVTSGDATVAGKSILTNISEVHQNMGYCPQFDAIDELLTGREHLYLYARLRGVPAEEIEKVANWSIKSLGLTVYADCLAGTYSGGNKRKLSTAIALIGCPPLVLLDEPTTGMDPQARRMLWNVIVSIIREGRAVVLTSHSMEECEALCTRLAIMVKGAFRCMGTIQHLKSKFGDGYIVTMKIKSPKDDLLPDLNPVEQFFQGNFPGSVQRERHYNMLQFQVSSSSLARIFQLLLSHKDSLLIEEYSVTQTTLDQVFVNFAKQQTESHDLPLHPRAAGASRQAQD
Test Summary: A4 correction dose-response assay: ABCA4 P1380L HiBit protein expression
Type: cell-based
Test Parameters: HEK-293 cells stably expressing HiBit-tagged ABCA4 P1380L; 24 h treatment; top concentration 30 μM; read-out: ABCA4 P1380L EC50, Emax
Provide the recorded EC50 for the entries that follow.

Param item = Cc1cc(C)c(Oc2cc(-c3cncc(Cl)c3)cnc2N(C)S(=O)(=O)c2cnn(C)c2)c(C)c1 [Compound I-59] ; retrieve measured EC50.
1 to 10 µM

Now give it for Cc1nc(C(F)(F)F)nc(C2CC2)c1Oc1nc(-c2cncc(Cl)c2)ccc1N(C)S(C)(=O)=O [Compound I-149] too.
> 25 µM

Now give it for Cc1cc(C)c(Oc2nc(-c3cncc(Cl)c3)ccc2N(C)S(=O)(=O)Cc2ccccc2)c(C)c1 [Compound I-64] too.
1 to 10 µM

Now give it for COc1ccc2nc[nH]c2c1S(=O)(=O)Nc1ccc(-c2cncc(Cl)c2)nc1Oc1c(C)cc(C)cc1C [Compound I-63] too.
10 to 25 µM

Now give it for Cc1nc(N2CC(C#N)C2)nc(C)c1Oc1nc(-c2cncc(C#N)c2)ccc1NS(C)(=O)=O [Compound I-159] too.
< 25 µM

Now give it for Cc1cc(C)c(Oc2nc(-c3cncc(Cl)c3)ccc2S(=O)(=O)N2CCCC2)c(C)c1 [Compound I-96] too.
> 25 µM

Now give it for Cc1cc(C(F)(F)F)nc(C2CC2)c1Oc1nc(-c2cncc(Cl)c2)ccc1NS(C)(=O)=O [Compound I-158] too.
< 1 µM

Now give it for Cc1cc(C2CC2)nc(C)c1Oc1nc(-c2cncc(Cl)c2)ccc1NS(C)(=O)=O [Compound I-37] too.
< 1 µM

Now give it for Cc1cc(Oc2nc(-c3cncc(C#N)c3)ccc2NS(C)(=O)=O)c(C)nc1C [Compound I-226] too.
> 25 µM

Now give it for Cc1cc(C)c(Oc2nc(-c3cncc(Cl)c3)ccc2N(C)S(C)(=O)=O)c(C)c1 [Compound I-48] too.
> 25 µM

Now give it for Cc1nc(C(F)(F)F)nc(C2CC2)c1Oc1nc(-c2cncc(C#N)c2)ccc1S(=N)(=O)C1CC1 (stereo not drawn) [Compound I-303] too.
> 25 µM

Now give it for Cc1nc(C(F)(F)F)nc(C2CC2)c1Oc1nc(-c2cncc(Cl)c2)ccc1NS(C)(=O)=O [Compound I-151] too.
< 1 µM

Now give it for Cc1cc(C2CC2)nc(C)c1Oc1nc(-c2cncc(C#N)c2)ccc1NS(C)(=O)=O [Compound I-4] too.
< 1 µM

Now give it for Cc1sc(C2CC2)nc1Oc1nc(-c2cncc(C#N)c2)ccc1NS(C)(=O)=O [Compound I-299] too.
< 1 µM

Now give it for Cc1cc(C)c(Oc2nc(-c3cncc(C#N)c3)ncc2NS(C)(=O)=O)c(C)n1 [Compound I-284] too.
< 25 µM
